Target: WT HIV-1 protease (Human immunodeficiency virus type 1 group M subtype B (isolate HXB2) (HIV-1))
Assay: Assay for inhibition of microbial expressed HIV protease (Procedure A, peptide substrate, HPLC fluorescence detection)
Settings: WT HIV-1 protease 10 pM, substrate 400 micromolar, pH 5.5, 30 min preincubation, 1 hour at 30° C.; read-out: Enzyme inhibition IC50
Description: The inhibition of WT HIV-1 protease was studied using the reaction of the protease (expressed in Eschericia coli) with a peptide substrate [Val-Ser-Gln-Asn-(betanaphthyl)Ala-Pro-Ile-Val (SEQ ID NO:1)]. Compounds were tested using Procedure A. In Procedure A, the test compound was first preincubated with the enzyme in assay buffer (50 mM sodium acetate, pH 5.5, 100 mM NaCl, and 0.1% BSA) for 30 minutes at room temperature. […]
pIC50: −log10 of the molar value.
TRUE means recorded pIC50 is 8 or above; FALSE means it is below 8.

These recorded examples may help you get a feel for the data.
MOLECULE	LABEL_CLASS
COC(=O)N[C@H](C(=O)N[C@H](c1ccc([C@@H](CO)N(C(C)C)S(=O)(=O)c2ccc(N)c(F)c2)s1)C(F)(F)F)C(c1ccccc1)c1ccccc1	FALSE
COC(=O)N[C@H](C(=O)N[C@H](c1ccc([C@@H](CO)N(CCC(C)(C)C)S(=O)(=O)c2ccc(-n3nccn3)cc2)s1)C(F)(F)F)C(c1ccccc1)c1ccccc1	FALSE
COC(=O)N[C@H](C(=O)NCc1ccc([C@H](CO)N(Cc2cn[nH]c2)S(=O)(=O)c2ccc3scnc3c2)s1)C(c1ccccc1)c1ccccc1	FALSE
COC(=O)N[C@H](C(=O)N[C@H](c1ccc([C@@H](CO)N(C(C)C)S(=O)(=O)c2ccc3[nH]ccc3c2)s1)C(F)(F)F)C(c1ccccc1)c1ccccc1	FALSE
COC(=O)N[C@H](C(=O)N[C@H](c1ccc([C@@H](CO)N(CCC(C)(C)C)S(=O)(=O)c2ccc3nc[nH]c3c2)s1)C(F)(F)F)C(c1ccccc1)c1ccccc1	TRUE
COC(=O)N[C@H](C(=O)NCc1ccc(C(CO)N(Cc2cn[nH]c2)S(=O)(=O)c2ccc3scnc3c2)s1)C(c1ccccc1)c1ccccc1 (some centres unmarked)	TRUE
COC(=O)N[C@H](C(=O)N[C@H](c1ccc([C@@H](CO)N(CCc2ccccc2)S(=O)(=O)c2ccc(N)cc2)s1)C(F)(F)F)C(c1ccccc1)c1ccccc1	TRUE
CCN([C@H](CO)c1ccc([C@@H](NC(=O)[C@@H](NC(=O)OC)C(c2ccccc2)c2ccccc2)C(F)(F)F)s1)S(=O)(=O)c1ccc(N)cc1	FALSE

query: API: above_or_equal(metric=pIC50, cutoff=8) for item COC(=O)N[C@H](C(=O)NCc1ccc(C(CO)N(Cc2cc3cccnc3[nH]2)S(=O)(=O)c2ccc3scnc3c2)s1)C(c1ccccc1)c1ccccc1 (some centres unmarked)
result: FALSE

Recorded values, source patent US9133157B2.
